assayedTarget: Prostacyclin receptor (Homo sapiens)
experimentalReadout: Ki (nM)
Answers are plain numbers, in nM.

Field: example entries. Status: answers known.
COc1cc(C(=O)n2c(C)c(CC(=O)O)c3cc(F)ccc32)ccc1OC[C@@H]1CN(C)c2ccccc2O1 | 1500
Cc1cc(OC[C@@H]2CN(C)c3ccccc3O2)ccc1C(=O)n1c(C)c(CC(=O)O)c2ccccc21 | 130

Okay, here is my list. What is Ki for each of these?
1. Cc1c(OC[C@@H]2CN(C)c3ccccc3O2)ccc(C(=O)n2c(C)c(CC(=O)O)c3cc(F)ccc32)c1C
2. Cc1c(CC(=O)O)c2cc(F)ccc2n1C(=O)c1ccc(OC[C@@H]2CN(C)c3ccccc3O2)cc1Cl

1: 230; 2: 200

====

assayedTarget: Prostaglandin D2 receptor (Mus musculus)
Sequence (P70263 whole entry): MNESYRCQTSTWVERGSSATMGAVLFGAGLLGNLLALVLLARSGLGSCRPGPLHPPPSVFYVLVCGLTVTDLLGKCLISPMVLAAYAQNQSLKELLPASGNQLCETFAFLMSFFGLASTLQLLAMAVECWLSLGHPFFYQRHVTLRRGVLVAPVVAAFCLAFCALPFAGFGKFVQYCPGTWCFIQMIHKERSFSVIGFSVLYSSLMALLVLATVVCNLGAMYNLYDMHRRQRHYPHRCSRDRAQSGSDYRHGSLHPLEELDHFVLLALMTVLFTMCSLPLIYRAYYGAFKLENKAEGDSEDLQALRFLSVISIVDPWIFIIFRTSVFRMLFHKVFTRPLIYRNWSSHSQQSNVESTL
methodDescription: Displacement of [3H]-PGD2 from mouse DP receptor expressed in CHO cells after 20 mins by liquid scintillation counting
pKi: −log10 of the molar value.
Label rule, in plain words: pKi of 8 and up is YES, under 8 is NO.

Cc1cc(OC[C@@H]2COc3ccccc32)ccc1C(=O)n1c(C)c(CC(=O)O)c2ccccc21 | NO
Cc1c(CC(=O)O)c2cc(Cl)ccc2n1C(=O)c1ccc(OC[C@@H]2CN(C)c3ccccc3O2)cc1 | NO
Cc1cc(OC[C@@H]2COc3ccccc3O2)ccc1C(=O)n1c(C)c(CC(=O)O)c2ccccc21 | NO
Cc1c(CC(=O)O)c2ccccc2n1C(=O)c1ccc(OC[C@@H]2CN(C)c3ccccc3O2)c(F)c1 | NO
CCN1c2ccccc2CC1COc1ccc(C(=O)n2c(C)c(CC(=O)O)c3ccccc32)c(C)c1 (centres undefined) | NO

I'd appreciate it if you could say whether Cc1cc(OC[C@@H]2CN(C)c3ccccc3O2)ccc1C(=O)n1c(C)c(CC(=O)O)c2cc(F)ccc21 has pKi at least equal to 8.
YES

Record Cc1c(CC(=O)O)c2cc(F)ccc2n1C(=O)c1ccc(OC[C@@H]2CN(C)c3ccccc3O2)cc1F ; criterion: pKi no lower than 8. Met?
YES

hey, is pKi for this one >= 8? COc1cc(C(=O)n2c(C)c(CC(=O)O)c3ccccc32)ccc1OC[C@@H]1CN(C)c2ccccc2O1
NO

Hi team, for Cc1c(CC(=O)O)c2cc(F)ccc2n1C(=O)c1ccc(OC[C@@H]2CN(C)c3ccccc3O2)cc1Cl , is the recorded pKi at or above 8?
YES

====

assayedTarget: Prostaglandin E2 receptor EP2 subtype (Mus musculus, UniProt Q62053)
Sequence (Q62053 whole entry): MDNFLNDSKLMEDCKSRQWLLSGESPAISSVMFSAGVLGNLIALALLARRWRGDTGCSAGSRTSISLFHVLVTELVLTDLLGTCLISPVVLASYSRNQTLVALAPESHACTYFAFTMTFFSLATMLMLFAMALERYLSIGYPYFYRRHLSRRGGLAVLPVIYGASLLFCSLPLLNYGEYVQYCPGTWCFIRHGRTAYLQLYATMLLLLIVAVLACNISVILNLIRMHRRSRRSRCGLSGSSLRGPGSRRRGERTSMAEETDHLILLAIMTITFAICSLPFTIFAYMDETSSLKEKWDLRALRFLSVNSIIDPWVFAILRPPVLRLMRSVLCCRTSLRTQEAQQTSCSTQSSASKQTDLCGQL
experimentalReadout: pKi
One number for each entry, as −log10 of the molar value.

// query pKi value for entry Cc1c(CC(=O)O)c2cc(F)ccc2n1C(=O)c1ccc(OC[C@@H]2CN(C)c3ccccc3O2)cc1
6.60

====

What follows is a collection of Ki values obtained with Prostaglandin F2-alpha receptor (Mus musculus, UniProt P43117).
Sequence (P43117 whole entry): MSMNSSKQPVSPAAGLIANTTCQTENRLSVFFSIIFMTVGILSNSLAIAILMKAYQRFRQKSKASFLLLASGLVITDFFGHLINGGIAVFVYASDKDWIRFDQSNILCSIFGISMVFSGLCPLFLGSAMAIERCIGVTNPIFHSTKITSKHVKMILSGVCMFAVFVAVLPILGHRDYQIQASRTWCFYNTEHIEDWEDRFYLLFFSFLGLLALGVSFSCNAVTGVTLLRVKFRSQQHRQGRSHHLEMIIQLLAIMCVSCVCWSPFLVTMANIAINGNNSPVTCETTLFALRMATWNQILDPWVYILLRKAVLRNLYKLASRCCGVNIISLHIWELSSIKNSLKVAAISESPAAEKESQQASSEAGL
Numbers only, in nM.

Worked examples follow.
Cc1c(CC(=O)O)c2ccccc2n1C(=O)c1ccc(OC[C@@H]2CN(C)c3ccccc3O2)cc1 | 2100
CCN1c2ccccc2C[C@@H]1COc1ccc(C(=O)n2c(C)c(CC(=O)O)c3ccccc32)c(C)c1 | 1400
Cc1c(CC(=O)O)c2cc(F)ccc2n1C(=O)c1ccc(OC[C@@H]2CN(C)c3ccccc3O2)cc1Cl | 1200
Cc1c(CC(=O)O)c2cc(F)ccc2n1C(=O)c1ccc(OC[C@@H]2CN(C)c3ccccc3O2)cc1 | 1700

Then there is this compound:
What value of measured Ki is listed for Cc1cc2c(CC(=O)O)cccc2n1C(=O)c1ccc(OC[C@@H]2CN(C)c3ccccc3O2)cc1 ?
3100

====

assayedTarget: Prostacyclin receptor (Homo sapiens, UniProt P43119)
Sequence (P43119 whole entry): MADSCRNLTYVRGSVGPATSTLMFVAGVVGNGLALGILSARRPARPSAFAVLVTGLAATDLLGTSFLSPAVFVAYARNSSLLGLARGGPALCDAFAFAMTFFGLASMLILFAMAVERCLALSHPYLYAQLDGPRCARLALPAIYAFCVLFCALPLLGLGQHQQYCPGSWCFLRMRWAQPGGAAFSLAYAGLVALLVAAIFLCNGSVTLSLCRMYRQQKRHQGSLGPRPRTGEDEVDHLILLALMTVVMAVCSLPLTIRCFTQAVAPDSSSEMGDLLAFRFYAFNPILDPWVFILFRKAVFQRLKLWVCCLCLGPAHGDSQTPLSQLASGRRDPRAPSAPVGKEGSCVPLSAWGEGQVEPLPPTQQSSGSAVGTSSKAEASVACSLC
methodDescription: Displacement of [3H]-Iloprost from human IP receptor expressed in CHO cells after 30 mins by liquid scintillation counting
Type: cell-based
experimentalReadout: pKi
Answers are plain numbers, as −log10 of the molar value.

Consider the worked cases shown below.
Cc1c(CC(=O)O)c2ccccc2n1C(=O)c1ccc(OC[C@@H]2CN(C)c3ccccc3O2)cc1 | 6.70
COc1cc(C(=O)n2c(C)c(CC(=O)O)c3ccccc32)ccc1OC[C@@H]1CN(C)c2ccccc2O1 | 6.37
Cc1cc(OC[C@@H]2COc3ccc(F)cc32)ccc1C(=O)n1c(C)c(CC(=O)O)c2ccccc21 | 6.28

Here is another compound to look at.
// returns reported pKi for input Cc1c(CC(=O)O)c2ccccc2n1C(=O)c1ccc(OC[C@@H]2CN(C)c3ccccc3O2)cc1Cl
7.04

====

Would you mind telling me the reported IC50 of each entry?
assayedTarget: Prostaglandin D2 receptor (Mus musculus)
methodDescription: Antagonist activity at mouse DP receptor expressed in CHO cells assessed as inhibition of PGD2-induced cAMP accumulation after 10 mins by enzyme immunoassay in the presence of 0.1% BSA
Answers are plain numbers, in nM.

Cc1cc(OCC2Oc3ccccc3O2)ccc1C(=O)n1c(C)c(CC(=O)O)c2ccccc21 | 43

// batch mode: one IC50 value per listed entry
1. Cc1c(CC(=O)O)c2cc(F)ccc2n1C(=O)c1ccc(OC[C@@H]2CN(C)c3ccccc3O2)cc1
2. Cc1cc(OC[C@@H]2CN(C)c3ccccc3O2)ccc1C(=O)n1c(C)c(CC(=O)O)c2ccccc21
3. Cc1cc(OCC2Cc3ccccc3N2C)ccc1C(=O)n1c(C)c(CC(=O)O)c2ccccc21 (stereo not given)
4. Cc1cc(OC[C@@H]2CN(C)c3ccccc3O2)ccc1C(=O)n1c(C)c(CC(=O)O)c2cc(F)ccc21

1. 1.8
2. 1.1
3. 6.2
4. 3.2

====

assayedTarget: UniProt:P43119
experimentalReadout: log10 Ki (log10 of the value in nM)
Scale: decimal log of Ki, Ki in nM.

Cc1c(CC(=O)O)c2ccccc2n1C(=O)c1ccc(OC[C@@H]2CN(C)c3ccccc3O2)c(F)c1 | 2.32

For every record below, what is its log10 Ki?
1. Cc1c(OC[C@@H]2CN(C)c3ccccc3O2)ccc(C(=O)n2c(C)c(CC(=O)O)c3ccccc32)c1C
2. CCN1c2ccccc2C[C@@H]1COc1ccc(C(=O)n2c(C)c(CC(=O)O)c3ccccc32)c(C)c1
3. Cc1c(CC(=O)O)c2ccccc2n1C(=O)c1ccc(OC[C@@H]2CN(C)c3ccccc3O2)c(Cl)c1
4. Cc1cc(OC[C@@H]2COc3ccccc3O2)ccc1C(=O)n1c(C)c(CC(=O)O)c2ccccc21

1. 1.99
2. 3.34
3. 1.96
4. 2.76

====

Answer each item with its documented Ki.
assayedTarget: Prostaglandin E2 receptor EP3 subtype (Mus musculus)
Sequence (P30557 whole entry): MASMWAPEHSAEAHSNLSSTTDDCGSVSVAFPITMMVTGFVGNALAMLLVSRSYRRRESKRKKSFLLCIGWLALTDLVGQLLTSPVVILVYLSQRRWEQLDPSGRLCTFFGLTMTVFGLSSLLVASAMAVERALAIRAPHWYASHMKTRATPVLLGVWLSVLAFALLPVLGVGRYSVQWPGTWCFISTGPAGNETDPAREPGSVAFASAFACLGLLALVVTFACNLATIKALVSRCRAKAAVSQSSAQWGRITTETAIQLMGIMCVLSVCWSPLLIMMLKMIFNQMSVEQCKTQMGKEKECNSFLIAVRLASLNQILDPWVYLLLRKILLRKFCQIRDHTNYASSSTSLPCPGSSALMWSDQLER
One number for each entry, in nM.

Answered cases to consult:
Cc1cc(OC[C@@H]2CN(C)c3ccccc3O2)ccc1C(=O)n1c(C)c(CC(=O)O)c2ccccc21 | 3600
Cc1c(CC(=O)O)c2ccccc2n1C(=O)c1ccc(OC[C@@H]2CN(C)c3ccccc3O2)cc1 | 1700
COc1ccc2c(c1)c(CC(=O)O)c(C)n2C(=O)c1ccc(OC[C@@H]2CN(C)c3ccccc3O2)cc1 | 2500

Then this molecule:
Requested field: Ki. Item: Cc1ccc2c(c1)c(CC(=O)O)c(C)n2C(=O)c1ccc(OC[C@@H]2CN(C)c3ccccc3O2)cc1
2800

====

Test system: Cavia porcellus
methodDescription: Inhibition of OVA-induced vascular permeability in guinea pig conjunctiva at 3 mg/kg, po administered 1 hr before antigen challenge measured after 30 mins
Format: functional
Give inhibition in vivo at 3 mg/kg for every item shown.
Numbers only, in %.

Cc1cc(OC[C@@H]2CN(C)c3ccccc3O2)ccc1C(=O)n1c(C)c(CC(=O)O)c2ccccc21 | 29
Cc1c(CC(=O)O)c2cc(F)ccc2n1C(=O)c1ccc(OC[C@@H]2CN(C)c3ccccc3O2)cc1Cl | 52
Cc1cc2c(CC(=O)O)cccc2n1C(=O)c1ccc(OC[C@@H]2CN(C)c3ccccc3O2)cc1 | 41

Okay, now this compound:
Quick check: inhibition in vivo at 3 mg/kg on Cavia porcellus, item Cc1c(CC(=O)O)c2ccccc2n1C(=O)c1ccc(OC[C@@H]2CN(C)c3ccccc3O2)cc1Cl ?
48
